# EXPERIMENTAL SYSTEM: FXR LBD, GST (Homo sapiens, UniProt Q96RI1)
# Construct: FXR LBD, GST
# Sequence (Q96RI1 262-486 limits assumed): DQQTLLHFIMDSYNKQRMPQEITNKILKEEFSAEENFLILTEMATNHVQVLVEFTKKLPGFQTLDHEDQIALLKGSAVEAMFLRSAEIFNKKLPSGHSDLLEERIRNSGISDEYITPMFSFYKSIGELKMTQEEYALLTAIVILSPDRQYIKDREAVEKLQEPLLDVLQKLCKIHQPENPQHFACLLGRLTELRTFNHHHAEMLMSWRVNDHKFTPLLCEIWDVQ
# PROTOCOL DETAILS: FXR Binding Assay (TR-FRET, Fluorescein-SRC2-2 coactivator peptide)
# CONDITION DESCRIPTION: TR-FRET FXR LBD coactivator recruitment
# Description: The interaction between the present compounds and FXR are evaluated by Time-Resolved Fluorescence Resonance Energy Transfer (TR-FRET) competition assay. […] In contrast to standard FRET, TR-FRET unites time-resolved fluorescence (TRF) and the FRET principle, TRF use a long-lifetime lanthanide chelate as the donor species, while lanthanide chelates are unique in that their excited-state lifetime can be on the order of a millisecond or longer. […]
MEASURED PARAMETER: EC50

- COC(=O)c1cn(C)c2cc(N3CCC(N(C)Cc4c(-c5c(Cl)cccc5Cl)noc4C4CC4)CC3)ccc12 [Example I59]: > 10 µM
- O=C(O)c1ccc2nc(N3CC4CC(C3)C4OCc3c(-c4ccccc4OC(F)(F)F)noc3C3CC3)sc2c1 (stereo not shown) [Example I66]: > 10 µM
- Cn1cc(C(=O)O)c2ccc(N3CC4CC(C3)N4CCc3c(-c4c(Cl)cccc4Cl)noc3C3CC3)cc21 [Example I49]: > 10 µM
- O=C(O)c1ccc2nc(N3CC4CC(C3)C4OCc3c(-c4c(Cl)cccc4Cl)noc3C3CC3)sc2c1 (stereo not shown) [Example I67]: > 10 µM
